Assay: Dissociation of complex over time monitored by 1H NMR
Type: physicochemical
Details: 10 mM Co^II complex, pD 3.5-3.9, 100 mM NaCl, 12 hours at 37° C.
metric-name: % Dissociation Acidic (%)
The reply should be a number in %, with the unit left off.

NC(=O)CN1CCOCCOCCN(CC(N)=O)CCOCC1.[Co+2] [[Co(NOPE)]^2+] : 16

Challenge: Quick check: % Dissociation Acidic of NC(=O)CN1CCN(CC(N)=O)CCN(CC(N)=O)CC1.[Co+2] [[Co(TCMT)]^2+] ?
Response given: 1

Challenge: Quick check: % Dissociation Acidic of NC(=O)CN1CCN(CC(N)=O)CCN(CC(N)=O)CCN(CC(N)=O)CC1.[Co+2] [[Co(TCMC)]^2+] ?
Response given: 7

Challenge: Quick check: % Dissociation Acidic of NC(=O)CN1CCCN(CC(N)=O)CCN(CC(N)=O)CCCN(CC(N)=O)CC1.[Co+2] [[Co(CCRM)]^2+] ?
Response given: 95
